# test: total protein half-life in vivo (active degradation + dilution); higher = more stable protein
# protocol-conditions: wild type E. coli NCM3722; growth: C-lim chemostat; doubling time 6 h
Reported total protein half-life in vivo values for a set of sequences
The response must be a number in h with no trailing unit.

// worked examples, total protein half-life in vivo included
MYYPFVRKALFQLDPERAHEFTFQQLRRITGTPFEALVRQKVPAKPVNCMGLTFKNPLGLAAGLDKDGECIDALGAMGFGSIEIGTVTPRPQPGNDKPRLFRLVDAEGLINRMGFNNLGVDNLVENVKKAHYDGVLGINIGKNKDTPVEQGKDDYLICMEKIYAYAGYIAINISSPNTPGLRTLQYGEALDDLLTAIKNKQNDLQAMHHKYVPIAVKIAPDLSEEELIQVADSLVRHNIDGVIATNTTLDRSLVQGMKNCDQTGGLSGRPLQLKSTEIIRRLSLELNGRLPIIGVGGIDSVIAAREKIAAGASLVQIYSGFIFKGPPLIKEIVTHI [P0A7E1]; 5.72
MRYSKLTMLIPCALLLSACTTVTPAYKDNGTRSGPCVEGGPDNVAQQFYDYRILHRSNDITALRPYLSDKLATLLSDASRDNNHRELLTNDPFSSRTTLPDSAHVASASTIPNRDARNIPLRVDLKQGDQGWQDEVLMIQEGQCWVIDDVRYLGGSVHATAGTLRQSIENR; 6.3

Could you now consider this next sequence?
QUERY: Name the reported total protein half-life in vivo value associated with the sequence MNLHEYQAKQLFARYGLPAPVGYACTTPREAEEAASKIGAGPWVVKCQVHAGGRGKAGGVKVVNSKEDIRAFAENWLGKRLVTYQTDANGQPVNQILVEAATDIAKELYLGAVVDRSSRRVVFMASTEGGVEIEKVAEETPHLIHKVALDPLTGPMPYQGRELAFKLGLEGKLVQQFTKIFMGLATIFLERDLALIEINPLVITKQGDLICLDGKLGADGNALFRQPDLREMRDQSQEDPREAQAAQWELNYVALDGNIGCMVNGAGLAMGTMDIVKLHGGEPANFLDVGGGATKERVTEAFKIILSDDKVKAVLVNIFGGIVRCDLIADGIIGAVAEVGVNVPVVVRLEGNNAELGAKKLADSGLNIIAAKGLTDAAQQVVAAVEGK [P0A836]
RESULT: 5.79

Data credit: the supplement of paper PMC11246515
